Measured values drawn from patent US11787785B2 for this set.

target or test system: WIZ protein (HiBit-WIZ fusion protein) (Homo sapiens, UniProt O95785+Q96SW2)
Construct: expressed in transfected cells
Sequence (O95785 whole entry, the tested form may be a part): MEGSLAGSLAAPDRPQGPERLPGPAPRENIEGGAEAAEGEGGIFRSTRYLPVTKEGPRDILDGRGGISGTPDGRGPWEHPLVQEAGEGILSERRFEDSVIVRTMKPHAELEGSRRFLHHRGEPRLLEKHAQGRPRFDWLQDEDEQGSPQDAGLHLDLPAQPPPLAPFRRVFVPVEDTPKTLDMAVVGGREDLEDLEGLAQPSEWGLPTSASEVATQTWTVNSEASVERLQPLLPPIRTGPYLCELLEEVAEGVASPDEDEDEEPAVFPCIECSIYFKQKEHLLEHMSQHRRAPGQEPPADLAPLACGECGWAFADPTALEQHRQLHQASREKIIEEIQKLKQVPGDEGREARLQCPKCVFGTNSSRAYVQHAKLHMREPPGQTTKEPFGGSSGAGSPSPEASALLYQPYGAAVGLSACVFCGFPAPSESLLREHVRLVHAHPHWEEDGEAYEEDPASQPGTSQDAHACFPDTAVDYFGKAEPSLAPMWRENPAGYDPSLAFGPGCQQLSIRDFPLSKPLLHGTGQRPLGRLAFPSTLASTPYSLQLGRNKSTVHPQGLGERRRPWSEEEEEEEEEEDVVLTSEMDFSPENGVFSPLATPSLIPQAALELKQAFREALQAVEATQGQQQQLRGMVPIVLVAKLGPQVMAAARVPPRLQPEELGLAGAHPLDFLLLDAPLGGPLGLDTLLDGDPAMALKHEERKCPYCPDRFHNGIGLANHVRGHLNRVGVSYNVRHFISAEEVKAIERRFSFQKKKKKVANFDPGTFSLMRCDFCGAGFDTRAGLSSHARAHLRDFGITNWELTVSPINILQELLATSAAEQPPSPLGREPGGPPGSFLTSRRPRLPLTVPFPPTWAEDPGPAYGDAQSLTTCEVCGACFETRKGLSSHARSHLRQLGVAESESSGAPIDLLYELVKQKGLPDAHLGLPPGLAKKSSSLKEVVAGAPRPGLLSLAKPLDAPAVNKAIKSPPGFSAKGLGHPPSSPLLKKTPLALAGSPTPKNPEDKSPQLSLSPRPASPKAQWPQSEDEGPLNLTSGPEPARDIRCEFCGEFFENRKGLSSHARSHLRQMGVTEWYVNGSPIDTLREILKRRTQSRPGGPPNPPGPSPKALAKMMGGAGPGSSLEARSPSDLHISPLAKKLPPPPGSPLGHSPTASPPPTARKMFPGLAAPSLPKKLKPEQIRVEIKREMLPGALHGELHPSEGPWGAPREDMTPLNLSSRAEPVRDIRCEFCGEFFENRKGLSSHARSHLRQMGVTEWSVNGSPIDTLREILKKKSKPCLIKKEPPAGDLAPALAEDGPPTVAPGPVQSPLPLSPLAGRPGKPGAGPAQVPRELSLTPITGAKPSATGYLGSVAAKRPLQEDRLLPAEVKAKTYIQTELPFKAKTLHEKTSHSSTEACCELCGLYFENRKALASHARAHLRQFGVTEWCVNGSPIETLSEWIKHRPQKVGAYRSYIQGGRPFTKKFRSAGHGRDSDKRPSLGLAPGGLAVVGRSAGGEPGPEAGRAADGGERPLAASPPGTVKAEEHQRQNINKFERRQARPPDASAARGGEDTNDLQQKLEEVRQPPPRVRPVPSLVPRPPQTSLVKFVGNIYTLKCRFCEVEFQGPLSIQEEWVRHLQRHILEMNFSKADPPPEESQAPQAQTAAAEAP
Sequence (Q96SW2 whole entry, the tested form may be a part): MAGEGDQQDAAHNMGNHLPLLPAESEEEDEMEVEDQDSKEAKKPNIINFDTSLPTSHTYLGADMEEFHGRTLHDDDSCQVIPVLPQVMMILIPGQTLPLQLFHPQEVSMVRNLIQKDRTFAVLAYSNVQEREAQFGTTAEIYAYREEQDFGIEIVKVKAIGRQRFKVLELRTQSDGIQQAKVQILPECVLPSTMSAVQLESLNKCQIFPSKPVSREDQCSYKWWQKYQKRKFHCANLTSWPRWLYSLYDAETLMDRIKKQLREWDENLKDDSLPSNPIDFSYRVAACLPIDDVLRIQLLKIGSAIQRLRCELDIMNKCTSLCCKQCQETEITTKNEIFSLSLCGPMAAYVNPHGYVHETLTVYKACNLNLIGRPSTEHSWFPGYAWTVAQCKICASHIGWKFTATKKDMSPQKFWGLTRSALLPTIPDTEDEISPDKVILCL
Sequence (Q16531 whole entry partner, the tested form may be a part): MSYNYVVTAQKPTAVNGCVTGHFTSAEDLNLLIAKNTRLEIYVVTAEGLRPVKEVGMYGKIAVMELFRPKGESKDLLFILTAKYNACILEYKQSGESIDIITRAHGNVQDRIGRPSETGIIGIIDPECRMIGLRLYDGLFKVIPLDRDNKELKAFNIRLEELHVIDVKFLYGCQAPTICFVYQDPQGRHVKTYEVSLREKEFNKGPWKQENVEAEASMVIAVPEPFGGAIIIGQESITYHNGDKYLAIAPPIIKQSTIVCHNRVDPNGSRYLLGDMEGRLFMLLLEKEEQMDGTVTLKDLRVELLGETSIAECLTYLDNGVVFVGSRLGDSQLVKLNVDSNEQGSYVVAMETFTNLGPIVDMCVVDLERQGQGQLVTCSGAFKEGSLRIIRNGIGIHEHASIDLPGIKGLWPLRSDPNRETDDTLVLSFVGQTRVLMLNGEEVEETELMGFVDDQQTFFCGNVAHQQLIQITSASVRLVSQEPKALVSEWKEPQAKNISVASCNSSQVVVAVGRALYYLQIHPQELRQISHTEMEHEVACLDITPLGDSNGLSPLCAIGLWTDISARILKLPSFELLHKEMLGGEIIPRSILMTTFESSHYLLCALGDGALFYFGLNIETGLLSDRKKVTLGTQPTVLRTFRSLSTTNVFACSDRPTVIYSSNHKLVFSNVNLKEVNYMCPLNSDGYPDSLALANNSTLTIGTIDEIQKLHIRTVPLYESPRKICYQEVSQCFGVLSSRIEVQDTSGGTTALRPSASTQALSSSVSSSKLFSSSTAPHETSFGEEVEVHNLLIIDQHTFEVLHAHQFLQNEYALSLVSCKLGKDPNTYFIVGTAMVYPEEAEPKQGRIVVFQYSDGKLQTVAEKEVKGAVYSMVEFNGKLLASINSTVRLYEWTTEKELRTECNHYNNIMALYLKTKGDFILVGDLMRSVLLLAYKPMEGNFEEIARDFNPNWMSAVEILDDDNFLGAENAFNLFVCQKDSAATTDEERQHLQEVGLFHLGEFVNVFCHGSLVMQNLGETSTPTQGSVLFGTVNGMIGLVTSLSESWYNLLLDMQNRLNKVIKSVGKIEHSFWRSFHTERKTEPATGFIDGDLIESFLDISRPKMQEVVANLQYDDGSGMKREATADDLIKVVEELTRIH
method summary: Quantification of WIZ protein levels in HiBit tag fusion protein assay (WIZ HiBit assay in 293T cells)
Format: cell-based
test settings: HEK-293T, 100 − Amax, at 25 uM; 293T cells; read-out: % degradation of WIZ (100 − Amax)
measured attribute: Dmax at 25 µM (%)
Your answer is read as %, so omit the unit and give the number.

| compound | measured attribute | numeric readout |
| --- | --- | --- |
| O=C1CCN(c2cnn3ccc(CN4CCN(CC5CCC(F)(F)CC5)CC4)cc23)C(=O)N1 | Dmax at 25 µM | 83 |
| O=C1CCN(c2cnn3ccc(CN4CCN(CC5CCOCC5)CC4)cc23)C(=O)N1 | Dmax at 25 µM | 82 |
| O=C1CCN(c2cnn3ccc(CC4CCN(CC(F)F)CC4)cc23)C(=O)N1 | Dmax at 25 µM | 70 |
| O=C1CCN(c2cnn3ccc(CN4CCN(CC5(C(F)(F)F)CC5)CC4)cc23)C(=O)N1 | Dmax at 25 µM | 42 |

Query :: Need Dmax at 25 µM of O=C1CCN(c2cnn3ccc(CC4CCN(CC5CCOC5)CC4)cc23)C(=O)N1 (centres unmarked) , thanks.
Result :: 84

Query :: Follow-up entry: CCO[C@H]1CC[C@H](CN2CCC(Cc3ccn4ncc(N5CCC(=O)NC5=O)c4c3)CC2)CC1
Result :: 81

Query :: Follow-up entry: C[C@H]1CN(CC2CCOCC2)CCN1Cc1ccn2ncc(N3CCC(=O)NC3=O)c2c1
Result :: 51

Query :: Follow-up entry: O=C1CCN(c2cnn3ccc(CC4CCN(Cc5cccnc5)CC4)cc23)C(=O)N1
Result :: 82
